# Assay Notes: photoluminescence quantum yield (fraction); solvent given as SMILES
# Condition Parameters: in CO
Assign y to entries whose photoluminescence quantum yield meets or exceeds 0.1; assign n to the rest.

Worked examples follow.
Compound	Discrete Label
CC1(C)CCc2c(c3ccccc3c3nc4ccccc4nc23)O1	y
C#CCOc1ccc(/C=C/C2=[N+]3C(=C(c4ccc(N(C)CC)cc4)c4c(C)cc(C)n4[B-]3(F)F)C(C)=C2)cc1	y
Cc1nc2c(ccc3c2sc(/C=C/c2ccc(N(CCO)CCO)cc2)[n+]3C)s1	n
N#Cc1cccc2c(N)c(-c3nn([C@H]4C[C@H](O)[C@@H](CO)O4)c4ncnc(N)c34)ccc12	n
C#CCNC1=C2C(C)=CC(C)=[N+]2[B-](F)(F)n2c(C)cc(C)c21	n

Given COC(=O)CNC(=O)c1nc2c(N(C)C)nc(N(C)C)nc2n1Cc1ccccc1 , state whether its photoluminescence quantum yield is at least 0.1.
y

Given CCCN1/C(=C/C=C(/C=C/C2=[N+](CCC)c3ccccc3C2(C)C)c2ccc3ccccc3n2)C(C)(C)c2ccccc21 , state whether its photoluminescence quantum yield is at least 0.1.
y

Given CCCCc1cc(CCCC)c2ccc3c(CCCC)cc(CCCC)c4ccc1c2c43 , state whether its photoluminescence quantum yield is at least 0.1.
y

Given CNCCCC1c2ccccc2C=Cc2ccccc21 , state whether its photoluminescence quantum yield is at least 0.1.
y

Given CN(C)c1ccc(/C=C/C=N/N=C/c2ccc3ccc4cccc5ccc2c3c45)cc1 , state whether its photoluminescence quantum yield is at least 0.1.
n

Given CCN(CC)c1ccc2cc(-c3cc(SC)c(C#N)c(=O)o3)c(=O)oc2c1 , state whether its photoluminescence quantum yield is at least 0.1.
y

Given Nc1cc(N)cc(-c2nc3ccccc3s2)c1 , state whether its photoluminescence quantum yield is at least 0.1.
n

Given c1cc2ccc3cc4cccc5ccc6cc(c1)c2c3c6c54 , state whether its photoluminescence quantum yield is at least 0.1.
y

Given CCC1=C(C)C(=O)n2c1cc1c(c(C)c(C(=O)OCC(C)C)n1CC(C)C)c2=O , state whether its photoluminescence quantum yield is at least 0.1.
y

Given COC(=O)c1nc2c(N)nc(N(C)C)nc2n1Cc1ccccc1 , state whether its photoluminescence quantum yield is at least 0.1.
y

Given N#Cc1ccc(/C=C2\OC(=O)c3cc(N)ccc32)cc1 , state whether its photoluminescence quantum yield is at least 0.1.
y

Given CCN(CC)c1ccc2c(c1)oc(=O)c1c(C)nc3c(c(C)nn3-c3ccccc3)c12 , state whether its photoluminescence quantum yield is at least 0.1.
y

Given CCN(CC)c1ccc(-c2nc3cc(C(NC(=O)OC(C)(C)C)C(=O)OC)ccc3o2)c(O)c1 (stereo not drawn) , state whether its photoluminescence quantum yield is at least 0.1.
n

Given Cc1cccc(-c2[nH]c(=O)n3c2-c2ccccc2C3=O)c1O , state whether its photoluminescence quantum yield is at least 0.1.
y

Given N#C/C=C/c1ccc2ccc3cccc4ccc1c2c34 , state whether its photoluminescence quantum yield is at least 0.1.
y

Given COc1ccc(-c2nc(-c3ccccc3OC)[nH]c2-c2ccc(OC)cc2)cc1 , state whether its photoluminescence quantum yield is at least 0.1.
y
